Provide the reported protein stability index of each item.
ASSAY_INFO: protein stability index of a GFP-peptide fusion (GPS, HEK-293T) (PSI 1-6); higher = more stable;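 further: 24-mer peptide tiles fused after GFP, lentivirally expressed, FACS-sorted into six equal bins by GFP/DsRed ratio, decoded by Illumina sequencing, PSI is the read-weighted mean bin number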
DETAILS: treatment: DMSO; c terminus: a fixed tail appended
One number for each entry.

# RESIDUE_SEQUENCE, NUMBER
data = [
    ("HLSSPAKNFFKKAAAALFGGKKDK [PLK2]", 2.16),
    ("VIDGRNVTVTDVDIVFSKIKGKSC [TPPP]", 2.6),
    ("RRQAVAWLVAMHKAAKLLYESRDQ [ZFYVE21]", 2.29),
]

Below are 2 sequences. Give each one its protein stability index.
1. ATDNYDIGFGVYFEWTDSPNTAVS [ACBD3]
2. LTPKSTPVKTLPFSPSQFLNFWNK [MYBL2]

1. 2.21
2. 2.24

Below are 2 sequences. Give each one its protein stability index.
1. VSASRDKTLRVWDLKDDGNMMKVL [WSB1]
2. CYKGHKEIAQYLLEKGADVNRKSV [FEM1C]

1: 3.2; 2: 3.1
